Overview of reported pIC50 across a group of compounds:
# Target Or Test System: APOL1 G1 Protein (Homo sapiens, UniProt O14791, I384M/S342G)
# Sequence (O14791 28-398 S342G/I384M): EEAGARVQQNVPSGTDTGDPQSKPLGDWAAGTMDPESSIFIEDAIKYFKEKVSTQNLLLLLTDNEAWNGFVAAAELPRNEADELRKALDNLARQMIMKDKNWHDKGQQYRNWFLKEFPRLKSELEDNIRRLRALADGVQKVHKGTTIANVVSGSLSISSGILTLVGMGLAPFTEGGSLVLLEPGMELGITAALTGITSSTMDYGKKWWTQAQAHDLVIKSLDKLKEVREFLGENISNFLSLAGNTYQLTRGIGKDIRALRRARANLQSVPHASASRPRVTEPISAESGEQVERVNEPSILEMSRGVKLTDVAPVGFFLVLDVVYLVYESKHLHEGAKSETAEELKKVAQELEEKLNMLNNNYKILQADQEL
# Assay Remarks: Trypanosoma brucei brucei Lysis Assay Using APOL1 Recombinant Protein (AlamarBlue viability)
# Experimental Context: read-out: Trypanosomal Assay (IC50)
pIC50: −log10 of the molar value.

Report measured pIC50; entry is O=C(CCc1c(-c2ccc(F)cc2)[nH]c2c(F)cc(F)cc12)Nc1nc(C(F)(F)F)co1 [Compound 171]
< 6.00

Report measured pIC50; entry is Cc1cccc(CNC(=O)CCc2c(-c3ccc(F)cc3)[nH]c3c(F)cc(F)cc23)n1 [Compound 183]
< 6.00

Report measured pIC50; entry is CC1(O)CCN(C(=O)CCc2c(-c3ccc(F)cc3)[nH]c3ccc(F)cc23)C1 (racemic) [Compound 88]
< 6.00

More entries:
Report measured pIC50; entry is CC(CO)N(C)C(=O)CCc1c(-c2ccc(F)cc2)[nH]c2ccc(F)cc12 (stereo not shown) [Compound 51]
< 6.00

Report measured pIC50; entry is O=C(CCc1c(-c2ccc(F)cc2)[nH]c2c(F)cc(F)cc12)Nc1ccncc1 [Compound 119]
< 6.00

Report measured pIC50; entry is O=C(CCc1c(-c2ccc(F)cc2)[nH]c2c(F)cc(F)cc12)NCc1cnn(C2CC(F)(F)C2)c1 [Compound 176]
< 6.00

Report measured pIC50; entry is O=C(CCc1c(-c2ccc(F)cc2)[nH]c2c(F)cc(F)cc12)NC1(CO)CC1 [Compound 131]
> 6.60

Data provenance is patent US20230014907A1.
